# protocol: Pharmacokinetic study
# Assay type: in vivo, SD rats
# condition: SD, serum; Rat, Female, 5 mg/kg PO
# Method: […] […] The serum samples were collected by centrifugation and stored at –80 °C. Compound concentrations in the sample serums were further analyzed with an API-4000 LC-MS/MS system (Applied Biosystem, Foster City, USA), and pharmacokinetic parameters ( T 1/2, T max, C max, AUC 0-INF, Cl_F_obs, MRT INF_obs, and F(%)) were calcuated using the WinNonlin software (version 6.2; WinNonlin Professional, Pharsight, USA).
measureName: Cmax (ng/mL)
Express it in ng/mL; write the number only.

## Task Identify the reported Cmax for the following entry. COc1cc(N2CCC(N3CCN(C)CC3)CC2)ccc1Nc1nc2c(c(Nc3ccccc3S(=O)(=O)NC(C)C)n1)CCN2 [SY-707]
## Result 639

----------
# protocol: Pharmacokinetic study
# Type: in vivo, beagle dogs
# condition: serum; Beagle dog, Female, 5 mg/kg PO
measureName: Cmax (ng/mL)
Hi! Could you send only the number? It should be in ng/mL, unit omitted.

## Task Read off the recorded Cmax for COc1cc(N2CCC(N3CCN(C)CC3)CC2)ccc1Nc1nc2c(c(Nc3ccccc3S(=O)(=O)NC(C)C)n1)CCN2 [SY-707]
## Result 34.2

----------
# protocol: Pharmacokinetic study
# Assay type: in vivo, beagle dogs
# condition: both sexes, serum; Beagle dog, All, 5 mg/kg PO; read-out: Cl_F_obs (converted)
measureName: CL/F (mL/min/kg)
Write down the numeric answer in mL/min/kg and omit the unit.

## Task Please supply the value of reported CL/F for the item "COc1cc(N2CCC(N3CCN(C)CC3)CC2)ccc1Nc1nc2c(c(Nc3ccccc3S(=O)(=O)NC(C)C)n1)CCN2"
## Result 195

----------
# protocol: Pharmacokinetic study
# Type: in vivo, SD rats
# condition: SD, serum; Rat, Male, 5 mg/kg PO
measureName: Tmax (h)
Lab book: enter the figure in h, no units written.

## Task Recall and state the measured Tmax for "COc1cc(N2CCC(N3CCN(C)CC3)CC2)ccc1Nc1nc2c(c(Nc3ccccc3S(=O)(=O)NC(C)C)n1)CCN2" .
## Result 3.33

----------
# protocol: Pharmacokinetic study
# Assay type: in vivo, SD rats
# condition: SD, serum; Rat, Female, 5 mg/kg PO; read-out: Cl_F_obs (converted)
measureName: CL/F (L/h/kg)
Report the figure in L/h/kg without appending any unit label.

## Task Supply CL/F value. Item: "COc1cc(N2CCC(N3CCN(C)CC3)CC2)ccc1Nc1nc2c(c(Nc3ccccc3S(=O)(=O)NC(C)C)n1)CCN2"
## Result 0.586

----------
# protocol: Pharmacokinetic study
# Type: in vivo, beagle dogs
# condition: serum; Beagle dog, Male, 5 mg/kg PO
measureName: bioavailability
A complete answer gives the number followed by the unit.

## Task Report bioavailability, nothing else, for this compound: "COc1cc(N2CCC(N3CCN(C)CC3)CC2)ccc1Nc1nc2c(c(Nc3ccccc3S(=O)(=O)NC(C)C)n1)CCN2"
## Result 23.8%

----------
# Test system: MIA PACA-2
# protocol: Cell proliferation assay (CellTiter-Glo/CellTiter-Blue)
# Type: cell-based
# condition: Homo sapiens, MIA PaCa-2, 72 h, read-out: IC50 anti-proliferation
measureName: IC50 (µM)
I only need the number, in µM, no unit after it.

## Task Kindly indicate its recorded IC50. Item: "COc1cc(N2CCC(N3CCN(C)CC3)CC2)ccc1Nc1nc2c(c(Nc3ccccc3S(=O)(=O)NC(C)C)n1)CCN2"
## Result 1.3

----------
# protocol: Pharmacokinetic study
# Format: in vivo, SD rats
# condition: both sexes, SD, serum; Rat, All, 5 mg/kg PO
measureName: AUC(0-inf) (ng·h/mL)
// note: answer is a bare numeric in ng·h/mL

## Task Identify the reported AUC(0-inf) for the following entry. "COc1cc(N2CCC(N3CCN(C)CC3)CC2)ccc1Nc1nc2c(c(Nc3ccccc3S(=O)(=O)NC(C)C)n1)CCN2"
## Result 11000

----------
# protocol: Pharmacokinetic study
# Type: in vivo, beagle dogs
# condition: both sexes, serum; Beagle dog, All, 5 mg/kg PO
measureName: Cmax (ng/mL)
Output spec: scalar in ng/mL, unitless text.

## Task Annotate the compound "COc1cc(N2CCC(N3CCN(C)CC3)CC2)ccc1Nc1nc2c(c(Nc3ccccc3S(=O)(=O)NC(C)C)n1)CCN2" with its measured Cmax.
## Result 36

----------
# protocol: Pharmacokinetic study
# Type: in vivo, beagle dogs
# condition: both sexes, serum; Beagle dog, All, 5 mg/kg PO; read-out: MRT INF_obs
measureName: MRT inf (h)
Write the value in h as a bare number.

## Task Tell me MRT inf reported for "COc1cc(N2CCC(N3CCN(C)CC3)CC2)ccc1Nc1nc2c(c(Nc3ccccc3S(=O)(=O)NC(C)C)n1)CCN2"
## Result 13.6

----------
# protocol: Pharmacokinetic study
# Format: in vivo, beagle dogs
# condition: both sexes, serum; Beagle dog, All, 5 mg/kg PO
measureName: Tmax (h)
I only need the number, in h, no unit after it.

## Task Write down Tmax measured for item COc1cc(N2CCC(N3CCN(C)CC3)CC2)ccc1Nc1nc2c(c(Nc3ccccc3S(=O)(=O)NC(C)C)n1)CCN2 [SY-707]
## Result 2.83

----------
# protocol: Pharmacokinetic study
# Type: in vivo, beagle dogs
# condition: serum; Beagle dog, Male, 5 mg/kg PO
measureName: half-life (h)
I only need the number, in h, no unit after it.

## Task Annotate the molecule COc1cc(N2CCC(N3CCN(C)CC3)CC2)ccc1Nc1nc2c(c(Nc3ccccc3S(=O)(=O)NC(C)C)n1)CCN2 [SY-707] with its measured half-life.
## Result 9.33

----------
# protocol: Pharmacokinetic study
# Assay type: in vivo, beagle dogs
# condition: serum; Beagle dog, Male, 5 mg/kg PO
measureName: Tmax
Could you kindly put the unit after your number?

## Task Read the entry "COc1cc(N2CCC(N3CCN(C)CC3)CC2)ccc1Nc1nc2c(c(Nc3ccccc3S(=O)(=O)NC(C)C)n1)CCN2" and write its reported Tmax.
## Result 3 h

----------
# Tested on: MDA-MB-231
# protocol: Cell proliferation assay (CellTiter-Glo/CellTiter-Blue)
# Format: cell-based
# condition: Homo sapiens, MDA-MB-231, 72 h, read-out: IC50 anti-proliferation
# Protocol: MCF-7, T47D, MDA-MB-231, MIA Paca-2, PANC-1, SW620, HT-29, U87MG, and A549 cell lines were purchased from the Cell Bank of Chinese Academy of Science (Shanghai, China). […] The effects of SY-707 on cell proliferation were measured using CellTiter-Glo ® or CellTiter-Blue ® Cell Viability Assay kits (Promega, Beijing, China). […]
measureName: IC50 (nM)
Numeric answer only, unit nM assumed.

## Task Answer with reported IC50 of "COc1cc(N2CCC(N3CCN(C)CC3)CC2)ccc1Nc1nc2c(c(Nc3ccccc3S(=O)(=O)NC(C)C)n1)CCN2"
## Result 1900

----------
measureName: IC50 (nM)
Write the answer as a number in nM, unit excluded.

## Task Tell me its IC50 on UniProt:P08069: COc1cc(N2CCC(N3CCN(C)CC3)CC2)ccc1Nc1nc2c(c(Nc3ccccc3S(=O)(=O)NC(C)C)n1)CCN2 [SY-707]
Sequence (P08069 31-1367): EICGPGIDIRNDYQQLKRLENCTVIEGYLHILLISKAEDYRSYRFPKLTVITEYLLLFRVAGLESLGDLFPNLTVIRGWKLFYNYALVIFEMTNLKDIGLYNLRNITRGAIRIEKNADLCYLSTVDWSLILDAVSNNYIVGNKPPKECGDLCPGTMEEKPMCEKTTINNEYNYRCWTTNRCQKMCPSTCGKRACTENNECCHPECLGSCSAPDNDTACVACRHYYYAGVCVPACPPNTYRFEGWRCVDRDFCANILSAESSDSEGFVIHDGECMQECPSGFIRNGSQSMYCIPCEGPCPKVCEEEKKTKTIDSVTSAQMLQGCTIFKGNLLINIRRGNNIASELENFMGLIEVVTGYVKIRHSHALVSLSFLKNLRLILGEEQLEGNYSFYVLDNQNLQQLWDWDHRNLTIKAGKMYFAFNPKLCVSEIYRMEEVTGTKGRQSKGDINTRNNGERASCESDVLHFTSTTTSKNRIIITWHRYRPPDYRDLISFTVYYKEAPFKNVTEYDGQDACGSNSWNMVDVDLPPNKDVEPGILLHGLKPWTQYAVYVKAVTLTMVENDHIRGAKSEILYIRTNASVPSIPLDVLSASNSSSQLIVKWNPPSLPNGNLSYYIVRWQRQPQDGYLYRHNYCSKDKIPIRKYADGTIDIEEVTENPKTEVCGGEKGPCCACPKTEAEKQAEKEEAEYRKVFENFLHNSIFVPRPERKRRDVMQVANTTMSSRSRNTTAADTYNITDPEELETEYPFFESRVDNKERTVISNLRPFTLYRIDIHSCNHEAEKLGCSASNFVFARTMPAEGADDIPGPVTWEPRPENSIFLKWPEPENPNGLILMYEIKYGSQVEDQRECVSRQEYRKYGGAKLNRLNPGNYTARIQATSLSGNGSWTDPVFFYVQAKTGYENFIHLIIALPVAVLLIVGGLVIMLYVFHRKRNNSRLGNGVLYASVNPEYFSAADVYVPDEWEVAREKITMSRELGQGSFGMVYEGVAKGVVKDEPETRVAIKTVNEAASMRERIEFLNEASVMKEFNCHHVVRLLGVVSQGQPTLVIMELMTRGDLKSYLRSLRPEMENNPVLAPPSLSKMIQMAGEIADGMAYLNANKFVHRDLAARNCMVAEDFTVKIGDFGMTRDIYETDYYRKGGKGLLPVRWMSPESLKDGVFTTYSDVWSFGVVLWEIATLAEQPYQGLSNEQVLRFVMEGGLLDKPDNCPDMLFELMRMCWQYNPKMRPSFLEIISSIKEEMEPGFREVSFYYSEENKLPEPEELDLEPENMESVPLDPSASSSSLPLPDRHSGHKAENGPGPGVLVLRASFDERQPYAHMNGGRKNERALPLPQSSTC
## Result 10.6

----------
# protocol: Pharmacokinetic study
# Type: in vivo, SD rats
# condition: SD, serum; Rat, Female, 5 mg/kg PO
measureName: AUC(0-inf)

## Task Read the entry "COc1cc(N2CCC(N3CCN(C)CC3)CC2)ccc1Nc1nc2c(c(Nc3ccccc3S(=O)(=O)NC(C)C)n1)CCN2" and write its reported AUC(0-inf).
## Result 8590 ng·h/mL

----------
# protocol: Pharmacokinetic study
# Type: in vivo, SD rats
# condition: both sexes, SD, serum; Rat, All, 5 mg/kg PO; read-out: MRT INF_obs
measureName: MRT inf (h)
The figure you give is taken to be in h; do not add the unit.

## Task Give reported MRT inf value for "COc1cc(N2CCC(N3CCN(C)CC3)CC2)ccc1Nc1nc2c(c(Nc3ccccc3S(=O)(=O)NC(C)C)n1)CCN2"
## Result 14.7

----------
# protocol: Pharmacokinetic study
# Format: in vivo, SD rats
# condition: both sexes, SD, serum; Rat, All, 5 mg/kg PO
measureName: bioavailability (%)
Number only, in %; omit the unit.

## Task Specify bioavailability for "COc1cc(N2CCC(N3CCN(C)CC3)CC2)ccc1Nc1nc2c(c(Nc3ccccc3S(=O)(=O)NC(C)C)n1)CCN2" and stop.
## Result 36.2

----------
measureName: IC50 (nM)
Express it in nM; write the number only.

## Task Name the value of IC50 reported for COc1cc(N2CCC(N3CCN(C)CC3)CC2)ccc1Nc1nc2c(c(Nc3ccccc3S(=O)(=O)NC(C)C)n1)CCN2 [SY-707] when tested on PYK2 (Homo sapiens, UniProt Q14289).
Sequence (Q14289 whole entry): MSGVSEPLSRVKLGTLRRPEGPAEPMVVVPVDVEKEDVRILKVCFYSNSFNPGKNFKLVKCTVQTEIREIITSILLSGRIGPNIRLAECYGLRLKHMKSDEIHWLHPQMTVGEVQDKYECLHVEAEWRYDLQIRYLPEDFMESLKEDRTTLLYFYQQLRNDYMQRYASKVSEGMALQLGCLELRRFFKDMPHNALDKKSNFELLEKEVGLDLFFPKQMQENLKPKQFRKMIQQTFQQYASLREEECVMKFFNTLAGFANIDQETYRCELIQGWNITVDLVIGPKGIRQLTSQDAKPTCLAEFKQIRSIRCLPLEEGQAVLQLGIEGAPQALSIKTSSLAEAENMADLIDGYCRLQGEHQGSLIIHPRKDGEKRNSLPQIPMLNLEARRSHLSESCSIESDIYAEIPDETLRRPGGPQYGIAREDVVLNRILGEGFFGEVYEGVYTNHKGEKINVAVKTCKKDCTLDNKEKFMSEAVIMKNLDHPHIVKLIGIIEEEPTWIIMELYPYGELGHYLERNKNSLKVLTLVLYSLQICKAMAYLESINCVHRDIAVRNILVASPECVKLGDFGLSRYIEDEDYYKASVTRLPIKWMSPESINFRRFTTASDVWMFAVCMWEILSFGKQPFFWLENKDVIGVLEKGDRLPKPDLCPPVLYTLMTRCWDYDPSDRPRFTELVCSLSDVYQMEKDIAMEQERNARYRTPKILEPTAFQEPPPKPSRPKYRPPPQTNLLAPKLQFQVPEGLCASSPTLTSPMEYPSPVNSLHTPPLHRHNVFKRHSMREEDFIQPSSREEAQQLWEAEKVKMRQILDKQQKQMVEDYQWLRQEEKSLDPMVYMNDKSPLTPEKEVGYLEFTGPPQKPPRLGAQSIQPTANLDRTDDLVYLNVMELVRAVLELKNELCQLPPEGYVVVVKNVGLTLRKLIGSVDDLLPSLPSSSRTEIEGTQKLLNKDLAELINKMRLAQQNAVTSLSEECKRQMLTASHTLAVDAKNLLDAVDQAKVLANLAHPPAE
## Result 2.4
